tested on: SN12C renal; assay: NCI-60 one-dose screen, 48 h (100 = growth as untreated, 0 = no growth, -100 = all killed); conditions: 10 µM unless noted
This is part of a sample that, as a whole, favours compounds with a hit. Of some 83,000 tested, about 20% had one in any assay.
Readout name: growth (%)
Numbers only, in %.

Reference set (3 entries):
* CCOc1ccc(Nc2nc(-c3ccc4c(c3)NC(=O)CO4)cs2)cc1 | 78.6
* CN(C)CCC(=O)c1ccc([N+](=O)[O-])cc1 | 99.1
* O=C1Nc2cc(-c3cccc([N+](=O)[O-])c3)ccc2/C1=C/c1ccc[nH]1 | 101

Items follow; give growth for each.
1. c1ccc2cc(Cn3c(-c4cccc5ccccc45)[n+](Cc4ccc5ccccc5c4)c4c5ccccc5c5ccccc5c43)ccc2c1
2. CC(C)(C)c1ccc(NS(=O)(=O)c2ccc3nc(NC(=O)c4cnccn4)[nH]c3c2)cc1
3. Cn1cc(CC2CC(=O)N(c3ccccc3)C2=O)sc1=NC(=O)c1ccccc1 (centres undefined)
4. Cc1ccc(NC(=O)c2cc(-c3nc4ccccc4s3)c(=O)n(NS(=O)(=O)c3ccc(Cl)cc3)c2N)cc1

output:
[-82, 44.3, 103, 101]

For each of the compounds below, state growth.
1. CCCN1[C@@H]2CC[C@H]1/C(=C\c1ccc(OC)c(OC)c1)C(=O)/C2=C/c1ccc(OC)c(OC)c1
2. C#CCNC(=O)c1cccc2c1cc(C)n2-c1nc2c(c(NCc3ccccc3)n1)CCCC2

output:
[49.9, -41.3]

====

tested on: MDA-MB-231 breast; test: NCI-60 one-dose screen, 48 h; conditions: 10 µM unless noted
About 83,000 compounds went through this panel and 20% of them were active in at least one assay; those are over-represented in the sample as a whole. Calls of active or inactive are those of the source. How the source made its calls: active means growth percent below 10; inactive means the rest.
Please state which outcome applies, choosing from yes for active, no for inactive

* O=C(Nc1cccc(C2=NCCN2)c1)c1ccc(-c2ccc(C(=O)Nc3cccc(C4=NCCN4)c3)cc2)cc1 | no
* CCOC(=O)C1=C(C)NC(SCc2cc(=O)oc3ccc(F)cc23)=N[C@@H]1c1cccc2ccccc12 | no
* C=C1C(=O)O[C@H]2[C@H]1CC/C(CNC(=O)CCc1ccc(OC)cc1)=C\CC[C@@]1(C)O[C@@H]21 | no
* CNC(=O)c1cc(Cn2nc(C)c(NC(=O)Nc3ccc(Cl)c(C(F)(F)F)c3)c2C)ccn1 | no
* CCOC(=O)c1cc(C(=O)c2ccc(OC)c(OC)c2)n2c1ccc1ccccc12 | no
* CCOC(=O)c1cc(C(=O)c2cc(OC)cc(OC)c2)n2ccc3ccccc3c12 | no

input: Per the assay record, what outcome was assigned to O=C(O)c1ccc(-c2nn(-c3ccc(C(F)(F)F)cc3)cc2CNc2ccc(Oc3ccccc3)cc2)cc1 ?
output: no

input: # fetch the recorded call for COC(=O)C(CC=O)C(=O)C(=O)Nc1cccc(C(F)(F)F)c1 (configuration not stated) here
output: no

input: Any idea what this test logged for COc1ccc(Cc2cnc(NC(=O)c3ccc4c(c3)OCCO4)s2)cc1 ?
output: no

input: # outcome recorded in this test, key = O=C(C1CCC1)N1N=C(c2ccc(-n3ccc(C(F)(F)F)n3)cc2)CC1c1ccc[nH]1 (configuration not stated)
output: no

input: Hello, I am checking results. What call was entered for Cc1ncc(C(=O)Nc2ccc(CN3CCN(C)CC3)c(C(F)(F)F)c2)cc1C#Cc1cnc(N)cc1C#N ?
output: yes

input: Hello, I am checking results. What call was entered for CCCCCN1C=C/C(=C\C(=O)N(C)c2ccc(Oc3ccccc3)cc2)c2ccccc21 ?
output: no

input: What outcome does the record of this test show for CCCCCN1C=C/C(=C\C(=O)N(C)c2ccccc2Br)c2ccccc21 ?
output: no

input: Please indicate how the test categorized COc1ccc(/C=C/c2nc(Nc3ccc(Cl)cc3)c3ccccc3n2)cc1 .
output: no

input: Could you kindly confirm the outcome this assay logged for N#Cc1cc(-c2nc3ccccc3s2)c(=O)n(NS(=O)(=O)c2ccccc2)c1N ?
output: no

input: Dear all, I need the recorded test outcome for CCOC(=O)c1cc(C#N)n2ccc3ccccc3c12 , thank you.
output: no

input: // param item: COc1ccc(/C=C2\COc3ccc(-c4ccccc4)cc3C2=O)c(OC)c1 ; yields the recorded call
output: no

input: Outcome logged for COc1ccc(C(=O)c2cc(C)c(OC)c(C)c2)c(OC)c1OC(=O)C(Cl)Cl in this assay:
output: no

input: Look up the recorded call for COc1ccc(/C=C(\C#N)n2nc3cccc(F)c3n2)cc1 in this test.
output: no

input: Fill in: this test's call for CCCCCCCCOc1ccc(/C=N/Nc2cc(C)nc3ccc(Br)cc23)cc1 is ___
output: no

input: Assay result, entry CNC(=O)c1cccc(Cn2nc(C)c(NC(=O)c3ccc(COc4ccc(C(F)(F)F)cc4C)cc3)c2C)n1 — outcome?
output: no

input: What was the test verdict on N#CC1=C(N)Oc2c(ccc3ccccc23)C1c1ccccc1Cl (configuration not stated) ?
output: yes

====

system: LOX IMVI melanoma; assay: NCI-60 one-dose screen, 48 h; conditions: 10 µM unless noted
About 83,000 compounds went through this panel and 20% of them were active in at least one assay; those are over-represented in the sample as a whole. Calls of active or inactive are those of the source. The calls were made as follows: active = growth percent below 10; inactive = the rest.
API: response.call in T for active, F for inactive

// known answers, use as guide
* COc1cc2cc(Oc3cccc(NC(=O)Nc4cc(C(F)(F)F)cc(C(F)(F)F)c4)c3)c(C)nc2cc1OC | T
* CCCCCN1C=C/C(=C\C(=O)N(C)c2ccc(Oc3ccccc3)cc2)c2ccccc21 | F
* COc1ccccc1/C(C)=N/NC(=O)CSc1nc2ccccc2c(=O)n1Cc1ccc(S(N)(=O)=O)cc1 | F
* CCCCCCOc1ccc(/C=N/Nc2cc(C)nc3ccc(Cl)cc23)cc1 | T
* COc1ccc(C(=O)c2nc3ccccc3n2CC(=O)c2ccc(Cl)cc2)cc1 | F
* O=C(NNc1nc2c(F)cccc2n2cccc12)c1cnccn1 | T

input: Record request — test call for COc1ccc(C/C(C)=C(/c2ccc(OCCCN(C)C)cc2)c2ccc(OC(C)=O)cc2)cc1
output: F

input: Would you mind telling me which call this test gave COc1cc(NCCCCCNC(C)(C)C)c2ncccc2c1 ?
output: F

input: Please let me know the test result on file for Cc1ccccc1NS(=O)(=O)c1cccc(C(=O)Nc2ccc(Br)cc2)c1 .
output: F

input: How did this test come out for CCCN1[C@@H]2CC[C@H]1/C(=C\c1ccc(OC)c(OC)c1)C(=O)/C2=C/c1ccc(OC)c(OC)c1 ?
output: F

input: GET /call?item= CCCOC(=O)N[C@H]1CCc2c(Cl)c(OC)c(OC)c(OC)c2-c2ccc(SC)c(=O)cc21 returns the recorded outcome of this test.
output: F

input: # outcome recorded in this test, key = CC(C)(C)[Si](C)(C)OC1[C@@H](O[Si](C)(C)C(C)(C)C)[C@@H](CNC(=O)NC(=O)CCl)O[C@H]1n1cnc2c(NC(=O)Nc3ccccc3)ncnc21 (stereo partly drawn)
output: T

input: How was COc1cc2c(c(O)c1Cl)C(=O)c1c(O)cc(C[C@H](C)O)cc1[C@H]2[C@H]1c2cc(C[C@H](C)O)cc(O)c2C(=O)c2c1cc(OC)c(Cl)c2O classified in this test?
output: T

input: Would you mind telling me which call this test gave N/C(=N\C(N)=N\c1nc2ccccc2s1)c1cnccn1 ?
output: F

====

system: HCT-15 colon; test: NCI-60 one-dose screen, 48 h (100 = growth as untreated, 0 = no growth, -100 = all killed); conditions: 10 µM unless noted
About 83,000 compounds went through this panel and 20% of them were active in at least one assay; those are over-represented in the sample as a whole.
Readout name: growth (%)
Numbers only, in %.

* CN(C)CCn1c2ccc(Br)cc2c2nc3ccccc3nc21 | 20.2
* O=C(CCN1CCCC1)c1ccc([N+](=O)[O-])cc1 | 100
* CCSCC1CC(O)(c2ccccc2)CC(c2ccc(F)cc2)O1 (stereo not given) | 17.4
* O=C(CCN1CCCC1)Nc1ccc2c(Nc3ccc(F)cc3)c3ccccc3nc2c1 | -31.9
* Cc1cnc(C(=O)Nc2nc3ccc(S(=O)(=O)Nc4ccc(C5(C(F)(F)F)CC5)cc4)cc3[nH]2)cn1 | 20.6
* CCCCCCCCCCCCCCCC[N+]1(C)CCN(SN2CC[N+](C)(CCCCCCCCCCCCCCCC)CC2)CC1 | 54.2
* Nc1c(C(=O)Nc2cccc3cnccc23)sc2nc3c(cc12)C(=O)CCC3 | 70.9
* CCCCN1C=CCN(CCCC)C1 | 90.2

Kindly give each listed record's growth.
1. Cc1cccc(C)c1N=c1oc2ccc(Cl)cc2nc1-c1ccccc1O
2. CCN(CC)CCn1c(=O)c2cc(OC)c(OC)cc2c2ccc3cc4c(cc3c21)OCO4

output:
89.4
54.7
